experiment: HepG2 cytotoxicity; type: cell-based; details: human; n = 2
EXPERIMENTAL ENDPOINT: CC50

Ask: Please look at this compound and report its CC50: O=CN(O)C[C@H](O)[C@H](O)[C@H](O)CCP(=O)([O-])O.[Na+]
Result: > 1000 µM

---

target: E. coli GmhA (Escherichia coli, UniProt P63224)
Sequence (P63224 whole entry): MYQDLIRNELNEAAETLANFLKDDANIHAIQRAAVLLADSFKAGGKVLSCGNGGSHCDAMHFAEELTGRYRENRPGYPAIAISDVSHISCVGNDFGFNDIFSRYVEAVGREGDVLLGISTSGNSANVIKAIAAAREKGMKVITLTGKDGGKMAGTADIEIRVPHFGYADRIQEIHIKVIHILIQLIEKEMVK
EXPERIMENTAL ENDPOINT: pIC50
On this scale, pIC50 is minus log10 of a concentration expressed in M (mol/L).

Ask: Would you please give the reported pIC50 of O=CN(O)C[C@H](O)[C@H](O)[C@H](O)C(O)CP(=O)(O)O (some centres unmarked) [Compound 31] with E. coli GmhA (Escherichia coli, UniProt P63224)?
Result: 6.60

Ask: Would you please give the reported pIC50 of O=CN(O)C[C@H](O)[C@H](O)[C@H](O)C(O)C(O)P(=O)(O)O (some centres unmarked) [Compound 27] with E. coli GmhA (Escherichia coli, UniProt P63224)?
Result: 5.64

Ask: Would you please give the reported pIC50 of O=C(NO)[C@@H](O)[C@H](O)[C@H](O)[C@H](O)COP(=O)(O)O [Compound 96] with E. coli GmhA (Escherichia coli, UniProt P63224)?
Result: 7.80

Ask: Would you please give the reported pIC50 of O=CN(O)C[C@H](O)[C@H](O)[C@H](O)CC(O)P(=O)(O)O (some centres unmarked) [Compound 41] with E. coli GmhA (Escherichia coli, UniProt P63224)?
Result: 7.12

Ask: Would you please give the reported pIC50 of O=CN(O)C[C@H](O)C[C@H](O)CCP(=O)(O)O [Compound 68] with E. coli GmhA (Escherichia coli, UniProt P63224)?
Result: 5.52
